system: HepG2; test: cytotoxicity call (relative viability < 0.9); conditions: 10 µM
Out of some 39,000 compounds screened, about 3,300 (8.5%) were called active. The sample as a whole holds a higher share of actives than the screen did.
Reply using exactly one outcome from true (active), false (inactive)

Observe how each entry below is paired with its result.
1) O=C(C[C@H]1CC[C@@H]2NC[C@@H](O)COC[C@H]2O1)NCCN1CCCCC1 :: false
2) C[C@@H]1CN([C@H](C)CO)C(=O)c2cccc(NC(=O)c3ccno3)c2O[C@H]1CN(C)S(=O)(=O)c1cccs1 :: false
3) C[C@H]1CN([C@@H](C)CO)C(=O)c2cc(NC(=O)Nc3cccc4ccccc34)ccc2O[C@H]1CN(C)Cc1ccc(C(F)(F)F)cc1 :: false
4) Cc1ccc(S(=O)(=O)N(C)C[C@H]2OCCCC[C@@H](C)Oc3ccc(NC(=O)Nc4ccc(F)cc4)cc3C(=O)N([C@@H](C)CO)C[C@@H]2C)cc1 :: false
5) C[C@@H]1CCCCO[C@H](CN(C)S(=O)(=O)c2cccs2)[C@H](C)CN([C@@H](C)CO)C(=O)c2cc(NC(=O)Nc3ccc(C(F)(F)F)cc3)ccc2O1 :: true
6) CO[C@H]1CN(C)C(=O)c2cc(NC(=O)C3CC3)ccc2OC[C@H](C)N(C(=O)CN2CCOCC2)C[C@H]1C :: false

Short answer needed: outcome of this test for C[C@H](CO)N1C[C@H](C)[C@@H](CN(C)Cc2ccc(Cl)c(Cl)c2)OCCCC[C@H](C)Oc2ccc(NS(=O)(=O)c3cccs3)cc2C1=O ?
false

Now consider CC(=O)N[C@@H]1C[C@H](O)[C@@H](O)CCC(=O)N[C@H](c2ccccc2)COC1=O and answer again.
false

Now consider C[C@H](CO)N1C[C@H](C)[C@H](CN(C)Cc2ccc(C(F)(F)F)cc2)Oc2ccc(NC(=O)Nc3cccc4ccccc34)cc2C1=O and answer again.
true

Now consider C[C@@H]1CCCCO[C@@H](CN(C)S(=O)(=O)c2cccs2)[C@@H](C)CN([C@H](C)CO)C(=O)c2cc(NC(=O)Nc3ccc(C(F)(F)F)cc3)ccc2O1 and answer again.
false

Now consider C[C@@H]1CN([C@H](C)CO)C(=O)c2cc(-c3cccnc3)cnc2O[C@@H]1CN(C)Cc1ccc(Oc2ccccc2)cc1 and answer again.
false

Now consider C[C@@H]1CCCCO[C@H](CN(C)Cc2ccc(Cl)c(Cl)c2)[C@H](C)CN([C@H](C)CO)C(=O)c2cc(NS(=O)(=O)c3cccs3)ccc2O1 and answer again.
false

Now consider C[C@@H]1CCCCO[C@@H](CN(C)Cc2ccc(Cl)c(Cl)c2)[C@@H](C)CN([C@H](C)CO)C(=O)c2cc(NS(=O)(=O)c3cccs3)ccc2O1 and answer again.
false

Now consider CC(C)NC(=O)Nc1ccc2c(c1)C(=O)N([C@H](C)CO)C[C@@H](C)[C@H](CN(C)S(=O)(=O)c1cn(C)cn1)O2 and answer again.
false

Now consider C[C@@H]1CN([C@H](C)CO)C(=O)c2cc(NC(=O)Nc3cccc4ccccc34)ccc2O[C@@H]1CN(C)Cc1ccc(C(F)(F)F)cc1 and answer again.
false
